biological target: N-arachidonyl glycine receptor (Homo sapiens)
Sequence (Q14330 whole entry): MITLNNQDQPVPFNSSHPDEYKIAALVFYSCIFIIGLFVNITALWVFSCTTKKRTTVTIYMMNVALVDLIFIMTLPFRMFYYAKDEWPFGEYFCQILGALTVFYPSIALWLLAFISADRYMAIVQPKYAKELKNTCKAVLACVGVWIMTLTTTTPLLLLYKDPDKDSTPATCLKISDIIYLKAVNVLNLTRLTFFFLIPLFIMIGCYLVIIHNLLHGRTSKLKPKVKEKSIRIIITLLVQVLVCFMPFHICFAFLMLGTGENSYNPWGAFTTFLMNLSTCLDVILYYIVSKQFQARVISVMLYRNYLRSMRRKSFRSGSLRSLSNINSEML
measured_property: pIC50
// pIC50 here means minus log10 of the molar concentration (mol/L)

QUERY: Entry Cn1c(=O)c2c(nc3n2CCCN3CCc2c[nH]c3ccccc23)n(C)c1=O : reported pIC50 = ?
RESULT: 6.03
